// data source = ChEMBL document CHEMBL1152321

- test-details: Cytotoxicity against human LCC-6 cells expressing P-glycoprotein after 72 hrs
- Format: functional, cell-based
- condition-context: LCC-6, 72 h
Rule: IC50 below 5 nM gives condition met, anything at or above gives condition not met.

CC(=O)O[C@H]1C(=O)[C@@]2(C)[C@H]([C@H](OC(=O)c3cccc(F)c3)[C@]3(O)C[C@H](OC(=O)[C@H](O)[C@@H](NC(=O)OC(C)(C)C)C(F)(F)F)C(C)=C1C3(C)C)[C@]1(OC(C)=O)CO[C@@H]1C[C@@H]2O	condition not met

Exam item: Criterion: IC50 strictly below 5 nM. Is it met by `CC(=O)O[C@H]1C(=O)[C@@]2(C)[C@H]([C@H](OC(=O)c3ccccc3)[C@]3(O)[C@H]4OCC/C=C/c5ccccc5C(=O)N[C@@H](c5ccccc5)[C@@H](O)C(=O)O[C@@H]4C(C)=C1C3(C)C)[C@]1(OC(C)=O)CO[C@@H]1C[C@@H]2O` ?
Marked response: condition not met

###

- Tested on: MCF7
- test-details: Resistance factor, ratio of IC50 for P-glycoprotein deficient wild type human MCF7 cells to IC50 for multidrug-resistant human NCI/ADR cells
- Format: functional
readout-type: Ratio

CCC(=O)O[C@H]1C(=O)[C@@]2(C)[C@H]([C@H](OC(=O)c3ccccc3)[C@]3(O)C[C@H](OC(=O)[C@H](O)[C@H](CC(C)C)NC(=O)OC(C)(C)C)C(C)=C1C3(C)C)[C@]1(OC(C)=O)CO[C@@H]1C[C@@H]2O	15

Now for the molecule whose Ratio we want.
Exam item: I am curious: what Ratio value has been reported for `COC(=O)O[C@H]1C(=O)[C@@]2(C)[C@H]([C@H](OC(=O)c3cccc(OC)c3)[C@]3(O)C[C@H](OC(=O)[C@H](O)[C@H](C=C(C)C)NC(=O)OC(C)(C)C)C(C)=C1C3(C)C)[C@]1(OC(C)=O)CO[C@@H]1C[C@@H]2O` ?
Marked response: 3.5

###

- Tested on: NCI-H460
- test-details: Cytotoxicity against human H460 cells after 72 hrs
- Type: functional, cell-based
- condition-context: NCI-H460, 72 h
readout-type: IC50 (nM)
Give bare numbers, in nM.

COc1cccc(C(=O)O[C@H]2[C@@H]3[C@]4(OC(C)=O)CO[C@@H]4C[C@H](O)[C@@]3(C)C(=O)[C@H](OC(=O)N(C)C)C3=C(C)[C@@H](OC(=O)[C@H](O)[C@@H](NC(=O)OC(C)(C)C)C(F)F)C[C@]2(O)C3(C)C)c1	0.4

Lab note: each molecule below needs its IC50 filled in.
1. CCC(=O)O[C@H]1C(=O)[C@@]2(C)[C@H]([C@H](OC(=O)c3cccc(OC)c3)[C@]3(O)C[C@H](OC(=O)[C@H](O)[C@@H](NC(=O)OC(C)(C)C)C(F)(F)F)C(C)=C1C3(C)C)[C@]1(OC(C)=O)CO[C@@H]1C[C@@H]2O
2. CC(=O)O[C@H]1C(=O)[C@@]2(C)[C@H]([C@H](OC(=O)c3cccc(F)c3)[C@]3(O)C[C@H](OC(=O)[C@H](O)[C@@H](NC(=O)OC(C)(C)C)C(F)F)C(C)=C1C3(C)C)[C@]1(OC(C)=O)CO[C@@H]1C[C@@H]2O

Marked response:
1: 0.41; 2: 0.2

###

Exercise: state measured IC50 for each of the compounds provided.
- Tested on: NCI-H460
- test-details: Cytotoxicity against human H460 cells after 72 hrs
- Type: functional, cell-based
- condition-context: NCI-H460, 72 h
Answers are plain numbers, in nM.

COC(=O)O[C@H]1C(=O)[C@@]2(C)[C@H]([C@H](OC(=O)c3cccc(Cl)c3)[C@]3(O)C[C@H](OC(=O)[C@H](O)[C@@H](NC(=O)OC(C)(C)C)C(F)(F)F)C(C)=C1C3(C)C)[C@]1(OC(C)=O)CO[C@@H]1C[C@@H]2O	0.43

Now for the compound whose IC50 we want.
Exam item: I am curious: what IC50 value has been reported for `CC(=O)O[C@@]12CO[C@@H]1C[C@H](O)[C@@]1(C)C(=O)[C@H](OC(=O)N(C)C)C3=C(C)[C@@H](OC(=O)[C@H](O)[C@@H](NC(=O)OC(C)(C)C)C(F)(F)F)C[C@@](O)([C@@H](OC(=O)c4cccc(N=[N+]=[N-])c4)[C@H]21)C3(C)C` ?
Marked response: 0.3

###

- test-details: Cytotoxicity against human LCC-6 cells expressing P-glycoprotein after 72 hrs
- Format: functional, cell-based
- condition-context: LCC-6, 72 h
pIC50: −log10 of the molar value.
Threshold check on pIC50: at or above 8 gives TRUE, strictly below gives FALSE.

Examples from the recorded data:
CC(=O)O[C@H]1C(=O)[C@@]2(C)[C@H]([C@H](OC(=O)c3cccc(Cl)c3)[C@]3(O)C[C@H](OC(=O)[C@H](O)[C@@H](NC(=O)OC(C)(C)C)C(F)F)C(C)=C1C3(C)C)[C@]1(OC(C)=O)CO[C@@H]1C[C@@H]2O	TRUE
CCC(=O)O[C@H]1C(=O)[C@@]2(C)[C@H]([C@H](OC(=O)c3cccc(F)c3)[C@]3(O)C[C@H](OC(=O)[C@H](O)[C@@H](NC(=O)OC(C)(C)C)C(F)F)C(C)=C1C3(C)C)[C@]1(OC(C)=O)CO[C@@H]1C[C@@H]2O	TRUE
COC(=O)O[C@H]1C(=O)[C@@]2(C)[C@H]([C@H](OC(=O)c3cccc(F)c3)[C@]3(O)C[C@H](OC(=O)[C@H](O)[C@@H](NC(=O)OC(C)(C)C)C(F)(F)F)C(C)=C1C3(C)C)[C@]1(OC(C)=O)CO[C@@H]1C[C@@H]2O	TRUE
CC(=O)O[C@@]12CO[C@@H]1C[C@H](O)[C@@]1(C)C(=O)[C@H](OC(=O)N(C)C)C3=C(C)[C@@H](OC(=O)[C@H](O)[C@@H](NC(=O)OC(C)(C)C)C(F)(F)F)C[C@@](O)([C@@H](OC(=O)c4cccc(Cl)c4)[C@H]21)C3(C)C	TRUE
COC(=O)O[C@H]1C(=O)[C@@]2(C)[C@H]([C@H](OC(=O)c3cccc(OC)c3)[C@]3(O)C[C@H](OC(=O)[C@H](O)[C@@H](NC(=O)OC(C)(C)C)C(F)(F)F)C(C)=C1C3(C)C)[C@]1(OC(C)=O)CO[C@@H]1C[C@@H]2O	TRUE

Exam item: Test whether the compound `CCC(=O)O[C@H]1C(=O)[C@@]2(C)[C@H]([C@H](OC(=O)c3cccc(F)c3)[C@]3(O)C[C@H](OC(=O)[C@H](O)[C@@H](NC(=O)OC(C)(C)C)C(F)(F)F)C(C)=C1C3(C)C)[C@]1(OC(C)=O)CO[C@@H]1C[C@@H]2O` records pIC50 of 8 or higher.
Marked response: TRUE

Exam item: Test whether the compound `CC(=O)O[C@H]1C(=O)[C@@]2(C)[C@H]([C@H](OC(=O)c3cccc(N=[N+]=[N-])c3)[C@]3(O)C[C@H](OC(=O)[C@H](O)[C@@H](NC(=O)OC(C)(C)C)C(F)F)C(C)=C1C3(C)C)[C@]1(OC(C)=O)CO[C@@H]1C[C@@H]2O` records pIC50 of 8 or higher.
Marked response: TRUE

Exam item: Test whether the compound `CC(=O)O[C@H]1C(=O)[C@@]2(C)[C@H]([C@H](OC(=O)c3cccc(Cl)c3)[C@]3(O)C[C@H](OC(=O)[C@H](O)[C@@H](NC(=O)OC(C)(C)C)C(F)(F)F)C(C)=C1C3(C)C)[C@]1(OC(C)=O)CO[C@@H]1C[C@@H]2O` records pIC50 of 8 or higher.
Marked response: TRUE

###

- test-details: Cytotoxicity against human LCC-6 cells expressing P-glycoprotein after 72 hrs
- Assay type: functional, cell-based
- condition-context: LCC-6, 72 h
readout-type: pIC50
Answers are plain numbers, as −log10 of the molar value.

Lab note: each compound below needs its pIC50 filled in.
1. CC(=O)O[C@H]1C(=O)[C@@]2(C)[C@H]([C@H](OC(=O)c3cccc(F)c3)[C@]3(O)C[C@H](OC(=O)[C@H](O)[C@@H](NC(=O)OC(C)(C)C)C(F)F)C(C)=C1C3(C)C)[C@]1(OC(C)=O)CO[C@@H]1C[C@@H]2O
2. COC(=O)O[C@H]1C(=O)[C@@]2(C)[C@H]([C@H](OC(=O)c3cccc(N=[N+]=[N-])c3)[C@]3(O)C[C@H](OC(=O)[C@H](O)[C@@H](NC(=O)OC(C)(C)C)C(F)(F)F)C(C)=C1C3(C)C)[C@]1(OC(C)=O)CO[C@@H]1C[C@@H]2O
3. CC(=O)O[C@H]1C(=O)[C@@]2(C)[C@H]([C@H](OC(=O)c3cccc(N=[N+]=[N-])c3)[C@]3(O)C[C@H](OC(=O)[C@H](O)[C@@H](NC(=O)OC(C)(C)C)C(F)(F)F)C(C)=C1C3(C)C)[C@]1(OC(C)=O)CO[C@@H]1C[C@@H]2O
4. CC(=O)O[C@@]12CO[C@@H]1C[C@H](O)[C@@]1(C)C(=O)[C@H](OC(=O)N(C)C)C3=C(C)[C@@H](OC(=O)[C@H](O)[C@@H](NC(=O)OC(C)(C)C)C(F)F)C[C@@](O)([C@@H](OC(=O)c4cccc(Cl)c4)[C@H]21)C3(C)C

Marked response:
8.00
8.40
8.40
8.41
